Numbers sourced from patent US6833456B2.

Assay: Mouse PK assay
Format: in vivo, B6 female mice
Conditions: female, B6, mouse, plasma, po, 50 mg/kg, p.o., 50 mg/kg, read-out: Mouse Cmax, po ng-h/mL
property: Cmax (ng/mL)

(a) CO[C@H]1CCN(C(=O)c2cc3nccc(Oc4ccc5c(c4)cc(C)n5C(=O)NC4CC4)c3s2)C1
(b) CNC(=O)n1c(C)cc2cc(Nc3cccc4cc(C(=O)N5C[C@H](OC)C[C@H]5CO)sc34)ccc21
(c) C#CCNC(=O)n1c(C)c(Cl)c2c(F)c(Oc3ccnc4cc(C(=O)N5CC[C@H](O)C5)sc34)ccc21
(d) C#CCNC(=O)n1c(C)cc2cc(Oc3ccnc4cc(C(=O)N5CCC[C@@H]5CO)sc34)ccc21
Problem: Falling order of Cmax, please. Put the labels in the requested order and list them out.
Result: d, a, c, b

(P) CNC(=O)n1c(C)cc2cc(Nc3ccnc4cc(C(=O)N5CCC[C@@H]5CO)sc34)ccc21
(Q) COC[C@H]1CCCN1C(=O)c1cc2nccc(Oc3ccc4[nH]c(C)c(C(=O)NC5CC5)c4c3)c2s1
Problem: Select one: P or Q . Criterion: greater recorded Cmax. State your choice using its label.
Result: P

###

Molecular target: PDGFRβ (Homo sapiens, UniProt P09619)
Sequence (P09619 33-1106): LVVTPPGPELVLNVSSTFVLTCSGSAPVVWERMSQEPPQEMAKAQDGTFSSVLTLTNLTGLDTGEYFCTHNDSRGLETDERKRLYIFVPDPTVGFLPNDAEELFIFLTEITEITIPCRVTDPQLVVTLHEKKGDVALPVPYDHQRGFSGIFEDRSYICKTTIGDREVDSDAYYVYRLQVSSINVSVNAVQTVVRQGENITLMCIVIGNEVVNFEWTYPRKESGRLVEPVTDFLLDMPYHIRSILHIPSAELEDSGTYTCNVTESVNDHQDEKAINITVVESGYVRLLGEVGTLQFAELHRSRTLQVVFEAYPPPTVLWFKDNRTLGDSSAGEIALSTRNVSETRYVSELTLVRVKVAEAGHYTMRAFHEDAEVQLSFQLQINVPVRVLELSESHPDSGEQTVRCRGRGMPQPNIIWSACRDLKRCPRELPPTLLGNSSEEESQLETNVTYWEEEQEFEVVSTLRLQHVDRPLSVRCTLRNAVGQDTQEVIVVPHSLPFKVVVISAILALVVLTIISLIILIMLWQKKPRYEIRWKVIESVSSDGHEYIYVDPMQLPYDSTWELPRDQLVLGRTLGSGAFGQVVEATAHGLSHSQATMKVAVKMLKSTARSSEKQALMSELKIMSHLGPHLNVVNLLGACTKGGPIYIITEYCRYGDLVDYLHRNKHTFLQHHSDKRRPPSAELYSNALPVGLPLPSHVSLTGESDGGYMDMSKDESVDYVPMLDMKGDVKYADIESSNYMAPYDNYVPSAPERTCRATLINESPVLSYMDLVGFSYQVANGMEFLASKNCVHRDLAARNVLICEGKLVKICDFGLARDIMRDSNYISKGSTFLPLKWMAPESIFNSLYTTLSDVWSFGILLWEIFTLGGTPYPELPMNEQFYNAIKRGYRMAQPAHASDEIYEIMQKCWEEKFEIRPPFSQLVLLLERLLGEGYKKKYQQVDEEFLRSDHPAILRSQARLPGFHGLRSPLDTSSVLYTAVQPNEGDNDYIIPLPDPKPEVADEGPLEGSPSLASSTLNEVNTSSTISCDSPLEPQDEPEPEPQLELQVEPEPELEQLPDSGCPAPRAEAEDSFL
Test: PAE-PDGFRβ phosphorylation in PAE-PDGFRB cells assay
Settings: PAE cells overexpressing human PDGFRβ, PDGF-BB stimulated; read-out: PAE PDGFR autophos IC50
pIC50: −log10 of the molar value.
property: pIC50

Some entries whose results are on file:
molecule CO[C@@H]1C[C@@H](CO)N(C(=O)c2cc3cccc(Nc4ccc5c(c4)cc(C)n5C(=O)NC4CC4)c3s2)C1 [Example 3g] , pIC50 observed: < 6.00

The measured pIC50 associated with CNC(=O)n1c(C)cc2cc(Nc3ccnc4cc(C(=O)N5CC[C@H](O)C5)sc34)ccc21 [Example 1i] reads ~6.00

Lab note: CNC(=O)n1c(C)cc2cc(Nc3cccc4cc(C(=O)N5C[C@H](OC)C[C@H]5CO)sc34)ccc21 [Example 3f] gave pIC50 of < 6.00

# molecule CNC(=O)n1c(C)cc2cc(Nc3ncnc4sc(C(=O)N5CCC[C@H]5COC)cc34)ccc21 [Example 12b] ; its pIC50 = < 6.00

Given item Cc1cc2cc(Nc3ccnc4cc(C(=O)N5CC[C@@H](O)C5)sc34)ccc2n1C(=O)NC1CC1 [Example 1q] , the value recorded as its pIC50 is < 6.00

From here, focus on the item given below.
Record CNC(=O)c1c(C)n(C(=O)NC)c2ccc(Oc3ccnc4cc(C(=O)N5CC[C@@H](N(C)C)C5)sc34)cc12 [Example 8a] . Reported pIC50: < 6.00

###

Biological target: PDGFRβ (Homo sapiens, UniProt P09619)
Test: PAE-PDGFRβ phosphorylation in PAE-PDGFRB cells assay
Conditions: PAE cells overexpressing human PDGFRβ, PDGF-BB stimulated; read-out: PAE PDGFR autophos IC50
pIC50: −log10 of the molar value.
property: pIC50

Here's what some known entries look like.
"Cc1cc2cc(Oc3ccnc4cc(C(=O)N5CC[C@H](O)C5)sc34)ccc2n1C(=O)NCCCO" yielded pIC50 of 6.67

Measured pIC50, "CCCNC(=O)n1c(C)cc2cc(Oc3ccnc4cc(C(=O)N5CC[C@H](OC)C5)sc34)ccc21" : 7.60

Entry "CO[C@H]1CCN(C(=O)c2cc3nccc(Oc4ccc5c(c4)cc(C)n5C(=O)NC4CC4)c3s2)C1" ; pIC50 = 7.72

pIC50 in this record for "Cc1cc2cc(Oc3ccnc4cc(C(=O)N5CC[C@@H](O)C5)sc34)ccc2n1C(=O)NC1CC1" : 8.40

Noted for "C#CCNC(=O)n1c(C)cc2cc(Nc3ccnc4cc(C(=O)N5CCC[C@@H]5CO)sc34)ccc21" : its pIC50 reads 7.95

(A) C#CCNC(=O)n1c(C)cc2c(F)c(Oc3ccnc4cc(C(=O)N5CCC[C@H]5COC)sc34)ccc21
(B) CO[C@H]1CCN(C(=O)c2cc3nccc(Oc4ccc5c(c4)cc(C)n5C(=O)NCCCO)c3s2)C1
(C) CCNC(=O)n1c(C)cc2cc(Oc3ccnc4cc(C(=O)N5CC[C@H](O)C5)sc34)ccc21
(D) Cc1cc2cc(Oc3ccnc4cc(C(=O)N5CC[C@H](O)C5)sc34)ccc2n1C(=O)NCCO
(E) CCCNC(=O)n1c(C)cc2cc(Oc3ccnc4cc(C(=O)N5CC[C@@H](N(C)C)C5)sc34)ccc21
Problem: Ordering criterion: pIC50; begin with the maximum. Kindly provide the labels arranged according to the requested ordering.
Result: A, E, C, B, D

(I) CO[C@H]1CCN(C(=O)c2cc3nccc(Oc4ccc5c(cc(C)n5C(=O)NC5CC5)c4F)c3s2)C1
(II) C#CCNC(=O)n1c(C)c(Cl)c2c(F)c(Oc3ccnc4cc(C(=O)N5CC[C@H](O)C5)sc34)ccc21
Problem: Quick one: lower pIC50, I or II ? Refer to your chosen item by its label in the answer.
Result: II

(1) C#CCNC(=O)n1c(C)cc2cc(Oc3ccnc4cc(C(=O)N5CCC[C@@H]5COC)sc34)ccc21
(2) C#CCNC(=O)n1c(C)cc2cc(Nc3ccnc4cc(C(=O)N5CCC[C@@H]5COC)sc34)ccc21
Problem: Endpoint returns whichever of 1 and 2 has the numerically higher pIC50. Pick one and reply with its label.
Result: 1
